Property: EC50; scope: individual binders
Target: T1, JCV VP1 mutant L55F (John Cunningham virus (JCV), UniProt P03089 1-354)
T1 construct: also called VP1 L55F; 55m VP1
Experiment: ELISA, plates coated with pseudovirus, purified antibody
Assay readout: EC50 (µg/mL)

[[record]]
binder = "2A11 (antibody, V domains shown) VH: QVQLVESGGGLVKPGGSLRLSCAASGFTFSDHYMSWIRQAPGKGLEWVSYISTSGRTIYYVDSVKGRFTISRDNAKNSLYLQMNSLRAEDMAVYYCASDYYDNVGWNYWGQGALVTVSS VL: DVVLTQSPLSLPVTLGQPASISCRSSQSLVYSDGNTYLNWFQQRPGQSPRRLIYKVSDRDFGVPDRFSGSGSGTDFTLKISRVEAEDVGIYYCMQGTHWPRTFGQGTKVEIK"
readout_number = 0.0136

[[record]]
binder = "1A3 (antibody, V domains shown) VH: QVQLVESGGGLVKPGGSLRLSCAASEITFSDYYMSWIRQAPGKGLEWISYISTSGRTIYFADSVKGRFTISRDNAKNSLYLQMNSLRADDTAVYYCASDFYDNSGWEYWGQGTLVTVSS VL: DVVMTQSPLSLSVTLGQPASISCRSSQSLVYSDGNTYLNWFQQRPGQSPRRLIYKVSDRDSGVPDRFSGSGSGTDFTLKISRAEAEDVGVYYCMQGTHWPRTFGQGTKVEIK"
readout_number = 0.0143

[[record]]
binder = "1E8 (antibody, V domains shown) VH: QVQLVESGGGLVKPGGSLRLSCAASGFTFSDHYMSWIRQAPGKGLEWVSYISTSGSTIYYADSVKGRFTISRDNAKNSLYLQMNSLRAEDTAVYYCASDYYDNSGWNYWGQGTLVTVSS VL: DVVMTQSPLSLPVTLGQPASISCRSSQSLVYSDGNTYLNWFQQRPGQSPRRLIYKVSDRDSGVPDRFSGSGSGTDFTLRISRVEAEDVGVYYCMQGSHWPRTFGQGTKVEIK"
readout_number = 0.0465

[[record]]
binder = "1E12 (antibody, V domains shown) VH: QVQLVESGGGLVKPGGSLRLSCTASGFTFSDHYMSWIRQAPGKGLEWVSYISTGGRTIYYADSVKGRFTISRDNAKNSLYLQMNSLRAEDTAVYYCASDYYDNVGWDYWGQGTLVTVSS VL: DVVLTQSPLSLPVTLGQPASISCRSSQSLIYSDGNTYLNWFQQRPGQSPRRLIYKVSDRDSGVPDRFSGSGSGTDFTLKISRVEAEDVGVYYCMQGTHWPRTFGQGTKVEIK"
readout_number = 0.0077

